- studyTarget: human GCGR (human, UniProt P47871 26-477)
- Sequence (P47871 26-477): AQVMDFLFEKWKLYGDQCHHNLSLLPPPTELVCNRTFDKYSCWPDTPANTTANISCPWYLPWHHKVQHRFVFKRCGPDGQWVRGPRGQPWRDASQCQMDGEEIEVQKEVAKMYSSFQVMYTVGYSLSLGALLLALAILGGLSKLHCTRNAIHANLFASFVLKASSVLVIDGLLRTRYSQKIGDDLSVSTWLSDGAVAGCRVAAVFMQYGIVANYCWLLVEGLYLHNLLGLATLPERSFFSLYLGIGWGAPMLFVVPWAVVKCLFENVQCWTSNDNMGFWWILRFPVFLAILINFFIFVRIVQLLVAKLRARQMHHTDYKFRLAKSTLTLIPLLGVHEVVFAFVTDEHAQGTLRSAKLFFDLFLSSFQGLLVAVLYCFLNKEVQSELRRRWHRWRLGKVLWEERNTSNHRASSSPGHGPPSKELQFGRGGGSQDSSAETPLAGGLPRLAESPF
- assayRemarks: cell-based or functional assay
Bridges are numbered along the chain shown (N, C = ends). Where no end group is shown, it is not given here. [ ]: non-standard residue; d: D form. L5A = not defined here; K4 = not defined here
Give EC50 cAMP 0% FBS for every item shown.
Numbers only, in nM.

Some entries whose results are on file:
Qu. Identify measured EC50 cAMP 0% FBS associated with HXQGTFTSDYSKYLDSKKAQEFVKWLLNGPSSGAPPPS (staple K4 on Lys 17, 24; Aib 2) [Conjugate 127]
Ans. 0.009

Qu. Identify measured EC50 cAMP 0% FBS associated with HXQGTFTSDYSKYLDKKKAKEFKQWLLNXGRNRNNIA (staple K4 on Lys 16, 23; Aib 2, 29) [Conjugate 129]
Ans. 56

Qu. Identify measured EC50 cAMP 0% FBS associated with H[dS]QGTFTSDYSKYLDECAAKEFICWLLRA (linker 17-24 via L5A; reading uncertain) [Conjugate 137]
Ans. 0.444

For every listed record, write down its EC50 cAMP 0% FBS.
1. HXQGTFTSDYSKYLDEKAAKEFIKWLLNGRNRNNIA (staple K4 on Lys 17, 24; Aib 2) [Conjugate 125]
2. H[dS]QGTFTSDYSKYLDEKAAKEFIKWLLRA (linker 17-24 via K4; reading uncertain) [Conjugate 123]
3. HXQGTFTSDYSKYLDSKKAKEFVKWLLNXGPSSGAPPPS (not fully specified; staple K4 on Lys 17, 24; Aib 2, 29) [Conjugate 126]

Ans.
1. 0.626
2. 0.451
3. 0.092
